Biological target: T1, monkey TIM-3 extracellular domain protein with hFc tag (cTIM-3-hFc) (monkey)
T1 construct: not shown: human IgG Fc fragment (hFc) of the pCpC vector
T1 chain: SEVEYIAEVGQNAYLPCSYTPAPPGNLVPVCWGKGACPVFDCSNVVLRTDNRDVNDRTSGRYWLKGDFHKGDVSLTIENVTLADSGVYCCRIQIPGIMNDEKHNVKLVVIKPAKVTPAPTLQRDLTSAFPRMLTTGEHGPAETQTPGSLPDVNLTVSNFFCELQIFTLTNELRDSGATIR
Experiment: ELISA, coated monkey TIM-3 ECD protein, 0.0007 nM antibody
Listing of entries alongside the reported OD450.
Simply state the number, no unit and no words.

7A4F10 fully human TIM-3 antibody (human IgG4, kappa) (antibody, V domains shown) VH: EVQLLESGGGLVQPGGSLRLSCAASGFTFRTHLISWVRQAPGKGLEWVAAITGSGGSTYYADSVKGRFIISRDNSKNTLFLQMNSLRAEDTAVYYCAKDGGSGSYDDFWGQGTLVTVSS VL: ETVLTQSPVTLSLSPGERATLSCRASQSVGSYLAWYQQKPGQAPRLLIYDASNRATGIPARFSGSGSGTDFTLTISSLEPEDFAVYYCQQRSNWPPTFGQGTKVEIK	0.14

Q: // lookup OD450 for 34B6D8 fully human TIM-3 antibody (human IgG4, kappa) (antibody, V domains shown) VH: EVQLVESGGGLVQPGGSLRLSCAASGFTFSTYWMTWVRQAPGKRLEWVANIKQGGGDKYYVDSVKGRFTISTDNAKNSLYLQMNSLRAEDTAVYYCARGSNWFDPWGQGTLVTVSS VL: EIVMTQSPATLSMSPGERATLSCRASQSVYDNLAWYQQKPGQAPRLLIYGASTRATGIPARFSGSGSGTEFTLTISSLQSEDFALYYCQQYTHWPITFGQGTRLEIK
A: 0.19

Q: Try 18D2H2 fully human TIM-3 antibody (human IgG4, kappa) (antibody, V domains shown) VH: EVQLVESGGDLVQPGGSLRLSCAASGFTFSTYWMTWVRQAPGRGLEWVANIKQDGSAKYYVDSVKGRFTLSRDDAKNSLYLQMNSLRAEDTAVYYCARGSNWFDYWGQGTLVTVSS VL: ETVMTQSPATLSVSPGERATLSCRANQNVYSNLAWYQQKPGQAPRLLIYDASTRATGFPARFSGSGSGTEFTLTISSLQSEDFAVYYCQQYNNWPLTFGGGTKVEIK next.
A: 0.15
